We begin with a simple list: items and their reported pIC50.
- target.system: UniProt P00533
- Sequence (P00533 whole entry, looked up): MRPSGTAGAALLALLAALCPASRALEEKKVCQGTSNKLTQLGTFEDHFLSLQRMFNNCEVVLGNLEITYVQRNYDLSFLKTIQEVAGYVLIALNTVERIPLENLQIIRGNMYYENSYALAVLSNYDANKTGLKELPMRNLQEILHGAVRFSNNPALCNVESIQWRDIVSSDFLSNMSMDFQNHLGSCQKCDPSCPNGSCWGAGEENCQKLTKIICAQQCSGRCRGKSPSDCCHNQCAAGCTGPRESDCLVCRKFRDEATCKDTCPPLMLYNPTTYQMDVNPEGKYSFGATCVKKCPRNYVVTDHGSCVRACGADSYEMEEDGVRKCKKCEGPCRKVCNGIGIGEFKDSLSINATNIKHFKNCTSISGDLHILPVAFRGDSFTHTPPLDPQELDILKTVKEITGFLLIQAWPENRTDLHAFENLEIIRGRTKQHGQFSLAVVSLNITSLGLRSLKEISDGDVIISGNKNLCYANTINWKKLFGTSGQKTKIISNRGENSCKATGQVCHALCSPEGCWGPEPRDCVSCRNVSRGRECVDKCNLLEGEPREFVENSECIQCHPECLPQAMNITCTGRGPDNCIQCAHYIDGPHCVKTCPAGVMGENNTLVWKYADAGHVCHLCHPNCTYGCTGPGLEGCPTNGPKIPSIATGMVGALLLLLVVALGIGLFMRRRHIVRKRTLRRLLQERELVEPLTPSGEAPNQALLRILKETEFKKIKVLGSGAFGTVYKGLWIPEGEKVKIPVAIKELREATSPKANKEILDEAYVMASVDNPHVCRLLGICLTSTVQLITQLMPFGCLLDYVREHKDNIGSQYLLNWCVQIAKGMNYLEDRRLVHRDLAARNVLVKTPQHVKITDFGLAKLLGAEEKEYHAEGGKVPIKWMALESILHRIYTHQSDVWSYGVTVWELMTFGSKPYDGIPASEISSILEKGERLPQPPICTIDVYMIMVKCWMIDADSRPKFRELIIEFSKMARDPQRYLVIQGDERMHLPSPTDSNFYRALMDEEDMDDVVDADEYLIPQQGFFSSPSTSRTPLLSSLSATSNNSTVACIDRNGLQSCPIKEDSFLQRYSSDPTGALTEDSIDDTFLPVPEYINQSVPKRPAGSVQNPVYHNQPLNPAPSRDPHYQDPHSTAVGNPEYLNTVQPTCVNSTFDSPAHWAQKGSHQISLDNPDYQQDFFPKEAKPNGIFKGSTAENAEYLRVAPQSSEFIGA
- study.conditions: A431
pIC50: −log10 of the molar value.

Would you please look over these solved cases?
- chemical.smiles: "C[C@H](Nc1[nH]cnc2c3ccccc3nc1-2)c1ccccc1"
  target.system: "UniProt P00533"
  assay.metric: "pIC50"
  measured.result: "< 4.00"
- chemical.smiles: "C[C@@H](Nc1ncnc2ccccc12)c1ccccc1"
  target.system: "UniProt P00533"
  assay.metric: "pIC50"
  measured.result: 7.07
- chemical.smiles: "C[C@H](Nc1ncnc2ccccc12)c1ccccc1"
  target.system: "UniProt P00533"
  assay.metric: "pIC50"
  measured.result: "< 5.00"

Moving on to the next molecule.
Please give the measured pIC50 for this molecule: `C[C@@H](Nc1nc[nH]c2nc(-c3ccccc3)cc1-2)c1ccccc1`
7.30 to 8.00
